- protocol description: probe aShh binding to arrayed compounds – biochemical, biotinylated probe, 635/667 nm fluorescence, primary screen (AID 1114);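 note: probe is biotin-labelled aShh protein from a stem cell growth factor screen; measures binding of labelled protein to compounds printed on the slide; score merges feature fluorescence at 667 nm with signal-to-noise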
- test context: higher = more signal; small-molecule microarray, probe aShh, fluorescence unless noted
measure name: composite z-score

1) COC(=O)C1(C)C=C2C(=C(C)C(=O)C2C)CN1 (stereo not drawn) :: 0.381
2) COC(=O)[C@@]1(Cc2ccccc2)[C@H]2c3cc(C(=O)N(C)C)[nH]c3C[C@H]2CN1C(=O)c1ccccc1 :: 0.333
3) OCc1ccc(C2=CC(c3cccs3)N(Cc3cccc(OC(F)(F)F)c3)CC2)cc1 (stereo not drawn) :: -0.138
4) CCCc1cc2c(n1Cc1ccco1)C(C)C1CN(C(=O)c3ccccc3)C(C)(C(=O)OC)C21 (stereo not drawn) :: 0.239
5) c1ccc(-c2cc3c(nc2-c2ccccc2)CCNC3)cc1 :: -0.0626
6) C[C@@H]1OC=C2[C@@H](O)[C@H]3O[C@H]3C(=O)[C@]23[C@H]1[C@H]1C2=C([C@@H](O)[C@H]4O[C@H]4C2=O)[C@@H]3O[C@@H]1C :: -0.2
7) C[C@H]1O[C@H]2C3=C(C(=O)[C@@H]4O[C@@H]4[C@@H]3O)[C@@H]1[C@@H]1[C@@H](C)OC=C3[C@@H](O)[C@H]4O[C@H]4C(=O)[C@]312 :: -0.0553

These measurements were taken from PubChem BioAssay.
